- assay info: Half life in Sprague-Dawley rat at 0.4 mg/kg, iv and 6 mg/kg, po
- Assay type: ADME, organism-based
- condition info: in vivo
assay metric: half-life (min)

N=C(c1ccc(C(=O)Nc2ccccc2C(=O)Nc2ccc(Cl)cn2)cc1)N1CCCCC1; 360
CN(C)C(=N)c1ccc(C(=O)Nc2ccccc2C(=O)Nc2ccc(Cl)cn2)cc1; 258

* * *

- assay info: Protein binding in human plasma
- Type: ADME, cell-free
- condition info: read-out: PB (converted)
assay metric: fraction unbound

(I) CN(C)C(=N)c1ccc(C(=O)Nc2ccccc2C(=O)Nc2ccc(Cl)cn2)cc1
(II) CN1CCN=C1c1ccc(C(=O)Nc2ccccc2C(=O)Nc2ccc(Cl)cn2)cc1
(III) N=C(c1ccc(C(=O)Nc2ccccc2C(=O)Nc2ccc(Cl)cn2)cc1)N1CCCCC1
// smallest fraction unbound at index 0, largest at the end Use the labels to give the ranking in the order requested. III, II, I
(III: 0.11, II: 0.18, I: 0.27)

* * *

- Test system: Plasma
- assay info: Anticoagulant activity in human plasma assessed as concentration required to double the thrombin generation time
- Format: functional
assay metric: Activity (µM)
I only need the number, in µM, no unit after it.

# value of Activity, Plasma, item CN1CCN=C1c1ccc(C(=O)Nc2ccccc2C(=O)Nc2ccc(Cl)cn2)cc1 = 1.1

# value of Activity, Plasma, item N=C1OCCN1Cc1ccc(C(=O)Nc2ccc(Cl)cc2C(=O)Nc2ccc(Cl)cn2)cc1 = 0.56

# value of Activity, Plasma, item N=C(c1ccc(C(=O)Nc2ccccc2C(=O)Nc2ccc(Cl)cn2)cc1)N1CCCCC1 = 0.36

# value of Activity, Plasma, item CN(C)C(=N)c1ccc(C(=O)Nc2ccccc2C(=O)Nc2ccc(Cl)cn2)cc1 = 0.54

# value of Activity, Plasma, item N=C1NCCN1Cc1ccc(C(=O)Nc2ccc(Cl)cc2C(=O)Nc2ccc(Cl)cn2)cc1 = 0.58
